Molecular target: HLA-B*07:02
Assay: IEDB peptide-MHC binding, purified MHC/direct/fluorescence; filed as Kd, often an IC50 or EC50 that approximates it; bounds were set here for any values at or beyond the usual limits of such assays
Conditions: source organism: Salmonella enterica
pKd: −log10 of the molar value.
experimentalReadout: pKd

sequencecontent=QTDDGVRFT datavalue="≤ 4.70"

---

Biological target: HLA-B*48:01
Experiment: IEDB peptide-MHC binding, purified MHC/direct/fluorescence; filed as Kd, often an IC50 or EC50 that approximates it; bounds were set here for any values at or beyond the usual limits of such assays
Conditions: source organism: Mycobacterium tuberculosis str. Haarlem
pKd: −log10 of the molar value.
experimentalReadout: pKd

sequencecontent=DDVARAWSL experimentalreadout=pKd datavalue="≤ 4.70"

Sourced from the Immune Epitope Database (IEDB)
